Value source: patent US20130131029A1

Procedure summary: Crystal size distribution (CSD) by laser diffraction (Mastersizer 2000, Fraunhofer model)
Assay type: physicochemical
Particulars: Entry 7; antisolvent flow 45 l/h; 3-ketodesogestrel flow 42 l/h; Microdyn membrane pore size 1 μm
Measured parameter: d50 (µm)
Entry rule: numbers only, all in µm.

Qu. Supply d50 value. Item: `C#C[C@]1(O)CC[C@H]2[C@@H]3CCC4=CC(=O)CC[C@@H]4[C@H]3C(=C)C[C@@]21CC`
Ans. 42

----------
Procedure summary: Crystal size distribution (CSD) by laser diffraction (Mastersizer 2000, Fraunhofer model)
Format: physicochemical
Particulars: Entry 4; antisolvent flow 90 l/h; 3-ketodesogestrel flow 0.7 l/h; Microdyn membrane pore size 1 μm
Measured parameter: d90 (µm)
Express the result in µm but write the number alone.

Qu. Please give measured d90 of the following entry: `C#C[C@]1(O)CC[C@H]2[C@@H]3CCC4=CC(=O)CC[C@@H]4[C@H]3C(=C)C[C@@]21CC`
Ans. 23

----------
Procedure summary: Crystal size distribution (CSD) by laser diffraction (Mastersizer 2000, Fraunhofer model)
Assay type: physicochemical
Particulars: Entry 3; antisolvent flow 45 l/h; 3-ketodesogestrel flow 6.2 l/h; Microdyn membrane pore size 1 μm
Measured parameter: d50 (µm)
Supply the numeric figure in µm, leaving out any unit text.

Qu. Tell me its d50 given `C#C[C@]1(O)CC[C@H]2[C@@H]3CCC4=CC(=O)CC[C@@H]4[C@H]3C(=C)C[C@@]21CC` as the entry.
Ans. 16

----------
Procedure summary: Crystal size distribution (CSD) by laser diffraction (Mastersizer 2000, Fraunhofer model)
Format: physicochemical
Particulars: Entry 2; antisolvent flow 45 l/h; 3-ketodesogestrel flow 0.4 l/h; Microdyn membrane pore size 1 μm
Measured parameter: d50 (µm)
Answer in µm, number only, no unit symbol.

Qu. Please supply the value of reported d50 for the item `C#C[C@]1(O)CC[C@H]2[C@@H]3CCC4=CC(=O)CC[C@@H]4[C@H]3C(=C)C[C@@]21CC`
Ans. 10

----------
Procedure summary: Crystal size distribution (CSD) by laser diffraction (Mastersizer 2000, Fraunhofer model)
Type: physicochemical
Particulars: Entry 4; antisolvent flow 90 l/h; 3-ketodesogestrel flow 0.7 l/h; Microdyn membrane pore size 1 μm
Measured parameter: d50 (µm)
Quick note: give the figure in µm, leave out the unit.

Qu. Please give the documented d50 of `C#C[C@]1(O)CC[C@H]2[C@@H]3CCC4=CC(=O)CC[C@@H]4[C@H]3C(=C)C[C@@]21CC`
Ans. 10

----------
Procedure summary: Crystal size distribution (CSD) by laser diffraction (Mastersizer 2000, Fraunhofer model)
Format: physicochemical
Particulars: Entry 6; antisolvent flow 45 l/h; 3-ketodesogestrel flow 10 l/h; Microdyn membrane pore size 1 μm
Measured parameter: d90 (µm)
Give the value in µm but do not write µm after it.

Qu. Supply reported d90 belonging to this compound: C#C[C@]1(O)CC[C@H]2[C@@H]3CCC4=CC(=O)CC[C@@H]4[C@H]3C(=C)C[C@@]21CC [3-ketodesogestrel]
Ans. 24

----------
Procedure summary: Crystal size distribution (CSD) by laser diffraction (Mastersizer 2000, Fraunhofer model)
Type: physicochemical
Particulars: Entry 8; antisolvent flow 45 l/h; 3-ketodesogestrel flow 20 l/h; Microdyn membrane pore size 1 μm
Measured parameter: d10 (µm)
Hi! Could you send only the number? It should be in µm, unit omitted.

Qu. Look up and state reported d10 for `C#C[C@]1(O)CC[C@H]2[C@@H]3CCC4=CC(=O)CC[C@@H]4[C@H]3C(=C)C[C@@]21CC`
Ans. 2
